- SYSTEM_NAME: T1, Human ST2 (human, UniProt Q01638 19-328, limits assumed)
- T1 construct: also called human ST2 protein; Interleukin 1 receptor-like 1
- T1 sequence (looked up): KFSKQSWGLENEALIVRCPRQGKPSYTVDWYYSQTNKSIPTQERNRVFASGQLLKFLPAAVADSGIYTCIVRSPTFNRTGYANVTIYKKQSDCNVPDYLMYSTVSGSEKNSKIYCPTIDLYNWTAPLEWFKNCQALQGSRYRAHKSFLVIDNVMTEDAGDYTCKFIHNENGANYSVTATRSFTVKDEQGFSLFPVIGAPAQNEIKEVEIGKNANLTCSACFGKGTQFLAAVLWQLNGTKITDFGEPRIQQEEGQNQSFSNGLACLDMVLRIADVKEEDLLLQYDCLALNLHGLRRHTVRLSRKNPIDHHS
- METHOD_DESCRIPTION: SPR (Carterra), antibody immobilized, ST2 analyte
Quick reference for koff among some binders
Number only, in s⁻¹; omit the unit.

BINDER	koff, s⁻¹
Human ST2 IgG1 Antibody 30 (antibody, V domains shown, IgG1; also called ST2 Antibody 30) VH: QVQLVQSGAEVKKPGSSVKVSCKASGYTFTTYGITWVRQAPGQGLEWMGGIIPIFGTANYAQKFQGRVTITADESTSTAYMELSSLRSEDTAVYYCAKLSGSSGSWDYYYYYGMDVWGQGTLVTVSS VL: DIVMTQSPLSLPVTPGEPASISCRSSQSLLHSNGYNYLDWYLQKPGQSPQLLIYAASNLQSGVPDRFSGSGSGTDFTLKISRVEAEDVGVYYCMQALQTPITFGQSTRLEIKR	0.029

Consider the record given below.
## Input Quick one: give measured koff for Human ST2 IgG1 Antibody 69 (antibody, V domains shown, IgG1; also called ST2 Antibody 69) VH: QVQLVQSGAEVKKPGASVKVSCKASGYTFSDYYVHWVRQAPGQGLEWMGWISAYNGNTNYAQKLQGRVTMTRDTSTSTVYMELSSLRSEDTAVYYCARGSLDIWFREPGVYMDVWGKGTTVTVSS VL: DIVMTQSPLSLPVTPGEPASISCRSSQSLLHSNGYNYLDWYLQKPGQSPQLLIYAASSLQSGVPDRFSGSGSGTDFTLKISRVEAEDVGVYYCMQALQTPITFGQGTKVEIKR
## Output 0.029
